- Assay method text: in vitro
- Type: in vitro ADME, Akkermansia muciniphila
- Test settings: cells or culture medium, VAMP remaining, incubated with A. muciniphila, time 9
Where a SMILES comes first, the peptide text is derived from it.
Measurement label: remaining at 9 h, 100 μM (%)
I only need the number, in %, no unit after it.

Sample CSCC[C@H](NC(=O)[C@H](C)NC(=O)[C@@H](N)C(C)C)C(=O)N1CCC[C@H]1C(=O)O [VAMP] (H-VAMP-OH) ; remaining at 9 h, 100 μM observed: 93.3

---

- Assay method text: in vitro
- Assay type: in vitro ADME, Akkermansia muciniphila
- Test settings: cells or culture medium, VAMP remaining, incubated with A. muciniphila, time 12
Where a SMILES comes first, the peptide text is derived from it.
Measurement label: remaining at 12 h, 100 μM (%)
I only need the number, in %, no unit after it.

Sample CSCC[C@H](NC(=O)[C@H](C)NC(=O)[C@@H](N)C(C)C)C(=O)N1CCC[C@H]1C(=O)O [VAMP] (H-VAMP-OH) ; remaining at 12 h, 100 μM observed: 79.6

---

- Assay method text: Blood pharmacokinetics of VAMP, 10 mg/kg i.v. or p.o.
- Type: in vivo
- Test settings: mouse, plasma, po; 10 mg/kg by gavage; read-out: Time of peak plasma concentration (converted)
Where a SMILES comes first, the peptide text is derived from it.
Measurement label: Tmax
Please format your answer as a value with the unit trailing.

Sample CSCC[C@H](NC(=O)[C@H](C)NC(=O)[C@@H](N)C(C)C)C(=O)N1CCC[C@H]1C(=O)O [VAMP] (H-VAMP-OH) ; Tmax observed: 30 min

---

- Assay method text: Simulated digestive stability of peptides (pepsase then trypsase)
- Type: in vitro ADME, porcine
- Test settings: pig, porcine pepsase (simulated gastric digestion), pH 3, simulated digestion, after porcine pepsase, relative to basal 100; replicate 1; sheet S2H; read-out: Peptide remaining, Pepsase
Where a SMILES comes first, the peptide text is derived from it.
Measurement label: remaining at 2 h, 5 mg/mL (%)
I only need the number, in %, no unit after it.

Study these solved cases before continuing.
Sample CC(C)C[C@H](NC(=O)[C@H](CC(N)=O)NC(=O)[C@@H](N)Cc1ccc(O)cc1)C(=O)N1CCC[C@H]1C(=O)O [YNLP] (H-YNLP-OH) ; remaining at 2 h, 5 mg/mL observed: 97.5

Sample NC(=O)CC[C@H](NC(=O)[C@@H]1CCCN1C(=O)[C@@H](N)Cc1ccccc1)C(=O)N[C@@H](CO)C(=O)O [FPQS] (H-FPQS-OH) ; remaining at 2 h, 5 mg/mL observed: 94.6

Sample CC(C)C[C@H](NC(=O)[C@@H](N)CC(C)C)C(=O)N[C@@H](Cc1ccc(O)cc1)C(=O)O [LLY] (H-Leu-Leu-Tyr-OH) ; remaining at 2 h, 5 mg/mL observed: 1.24

Sample CC(C)[C@H](N)C(=O)N[C@@H](C)C(=O)N[C@@H](CC(=O)O)C(=O)N[C@@H](Cc1c[nH]c2ccccc12)C(=O)O [VADW] (H-VADW-OH) ; remaining at 2 h, 5 mg/mL observed: 12.2

Moving on to another compound below.
Sample C[C@H](NC(=O)[C@H](Cc1ccc(O)cc1)NC(=O)[C@H](CO)NC(=O)[C@@H](N)Cc1ccc(O)cc1)C(=O)O [YSYA] (H-YSYA-OH) ; remaining at 2 h, 5 mg/mL observed: 17.8
